Values compiled from PubChem BioAssay.

EXPERIMENT: probe aNog binding to arrayed compounds – biochemical, biotinylated probe, 635/667 nm fluorescence, primary screen (AID 1115);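 note: probe is biotinylated aNog protein used at 0.15 µg/mL for 1 h at 4 C; z-score combines 667 nm fluorescence of each spot with its signal to noise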
APPLIED CONDITIONS: small-molecule microarray, higher = more signal
RESULT TYPE: composite z-score

> print(dat)
                                   molecule  endpoint.value
1      COCC(=C=CC[C@H](O)c1ccc(OCCO)cc1)CCO         -0.0898
2  CCOC(=O)C[C@H]1[C@H](OC(=O)c2cc3ccccc3oc2=O)[C@@H](NC(=O)c2ccc3ccccc3n2)c2cc(OCCCO)ccc2N1C(=O)Cc1ccc(OC)cc1         -0.0428
3  C=CC[C@@]1(C(=O)NCCCOC)N=C(c2ccc(OCCCO)cc2)O[C@@H]1c1ccccc1           0.365
4  O=C(NCCN1CCOCC1)[C@@H]1c2ccccc2C(=O)N(Cc2ccccc2Cl)[C@H]1c1ccc(CO)cc1           0.414
5  O=C(C1N=C(c2ccc(OCCCO)cc2)N(c2ccccc2)O1)N1CCCCC1 (stereo not drawn)           0.411
6  CCCCC=C[C@@H](NC(=O)OCc1ccccc1Cl)c1ccccc1            3.06
7  CCOC(=O)C[C@H]1[C@H](OC(=O)c2cc3ccccc3oc2=O)[C@@H](NC(=O)c2ccccc2)c2cc(OCCCO)ccc2N1C(=O)c1ccccc1          -0.108
8  O=C(NCCN1CCOCC1)[C@@H]1c2ccccc2C(=O)N(C2Cc3ccccc3C2)[C@H]1c1ccc(CO)cc1          -0.447

* * *

EXPERIMENTAL TARGET: Torsin-1A-interacting protein 1 (Homo sapiens)
EXPERIMENT: compound microarray binding of lysate hLAP1 – cell lysate, small-molecule microarray, COS7 lysate, 635/667 nm fluorescence, primary screen (AID 1116)
APPLIED CONDITIONS: 635 nm fluorescence, higher = more signal
RESULT TYPE: composite z-score

MOLECULE	EXPERIMENTAL TARGET	ENDPOINT VALUE
COC(=O)c1c(CC[C@@H](CO)NC(=O)N2CCC[C@H]2Cn2cc(C3(O)CCCCC3)nn2)oc(C(C)=O)c1C(=O)OC	Torsin-1A-interacting protein 1 (Homo sapiens)	0.416
[N-]=[N+]=Nc1ccccc1C[C@@]1(C(=O)N2CCOCC2)N=C(c2ccc(OCCCO)cc2)O[C@@H]1c1ccccc1	Torsin-1A-interacting protein 1 (Homo sapiens)	1.43
CCCCC=C[C@@H](NC(=O)OCc1ccccc1Cl)c1ccccc1	Torsin-1A-interacting protein 1 (Homo sapiens)	0.28
O=C1C2C=CC(C(O)C3CC=CCC3)N(Nc3ccccc3)C2C(=O)N1c1ccccc1 (centres undefined)	Torsin-1A-interacting protein 1 (Homo sapiens)	0.946
CC1CC/C=C\[C@H]2OC34C=CCN(c5ccc6ccccc6c5)C(=O)[C@H]3N(CCCO)C(=O)[C@@H]4C2C(=O)O1 (some centres undefined)	Torsin-1A-interacting protein 1 (Homo sapiens)	-0.406
O=C1O[C@@H](c2ccccc2)[C@@H](c2ccccc2)N2[C@@H](c3ccc(OCCO)cc3)[C@]3(C(=O)Nc4ccc(C#CC5=CCCCC5)cc43)[C@@H](C(=O)NC[C@H](O)c3ccccc3)[C@H]12	Torsin-1A-interacting protein 1 (Homo sapiens)	1.12
C=CCNC(=O)[C@@H]1[C@H]2C(=O)O[C@H](c3ccccc3)[C@H](c3ccccc3)N2[C@H](c2ccccc2OCCO)[C@@]12C(=O)Nc1ccc(C#CCC(C(=O)OC)C(=O)OC)cc12	Torsin-1A-interacting protein 1 (Homo sapiens)	0.458
CC(CO)N1C(=O)[C@@H]2[C@H]3C(=O)OCC=C[C@H]3OC23C=CCN(Cn2nnc4ccccc42)C(=O)[C@@H]13 (some centres undefined)	Torsin-1A-interacting protein 1 (Homo sapiens)	-0.607
O=C(NCCN1CCOCC1)[C@@H]1c2ccccc2C(=O)N(C2Cc3ccccc3C2)[C@H]1c1ccc(CO)cc1	Torsin-1A-interacting protein 1 (Homo sapiens)	0.554
CO[C@H]1O[C@H](CO)[C@@H](OC(=O)Nc2ccccc2)[C@H](OC(=O)c2cc3ccccc3[nH]2)[C@H]1OC(=O)c1cc2ccccc2[nH]1	Torsin-1A-interacting protein 1 (Homo sapiens)	0.621
COC(=O)C1=CC(CCCO)=CC(c2ccc(CN3CCCC3)cc2)N(Cc2cccc(OC(F)(F)F)c2)C=C1C(=O)OC (centres undefined)	Torsin-1A-interacting protein 1 (Homo sapiens)	2.1
CCCN1C(=O)[C@]2(Cc3ccccc31)N=C(c1ccc(OCCCO)cc1)O[C@@H]2c1ccccc1	Torsin-1A-interacting protein 1 (Homo sapiens)	0.414
CC(C)C(CO)N1C(=O)[C@@H]2C3C(=O)OCCC/C=C\[C@H]3OC23C=CCN(Cn2nnc4ccccc42)C(=O)[C@@H]13 (some centres undefined)	Torsin-1A-interacting protein 1 (Homo sapiens)	1.92
COc1ccc([Si](C)(C)[C@@H]2[C@@H](CC(=O)N(CCO)Cc3ccccc3)O[C@]3(C(=O)N(Cc4cccc(N5CCCCC5=O)c4)c4ccccc43)[C@H]2C)cc1	Torsin-1A-interacting protein 1 (Homo sapiens)	0.761

* * *

EXPERIMENT: JC-1 mitochondrial signal, unstimulated HepG2 cells – cell-based, JC-1 fluorescence, 24 h, 100 nL compound, profiling panel (AID 1167); note: test concentration not given here
APPLIED CONDITIONS: HepG2 mitochondrial potential, higher = more signal

COMPOUND	z-score
CC1CC/C=C\[C@H]2OC34C=CCN(C(C)(C)C)C(=O)[C@H]3N(CCCCCO)C(=O)[C@@H]4C2C(=O)O1 (stereo not given in full)	-0.589
CCCCCCCCCC(O)C1C=CC2C(=O)N(c3ccccc3)C(=O)C2N1Nc1cc(OC)c(OC)c(OC)c1 (stereo not given)	-0.0684
COc1ccc([Si](C)(C)[C@@H]2[C@@H](CCO)O[C@]3(C(=O)N(Cc4ccccc4)c4ccc(N5C(=O)c6cccc7cccc5c67)cc43)[C@H]2C)cc1	-0.555
CC(C)NC(=O)[C@@]1(C)c2ccccc2C(=O)N(Cc2ccc(OC(F)(F)F)cc2)[C@H]1c1ccc(CO)cc1	2.05
Cc1ccc(F)cc1S(=O)(=O)N[C@@H]1CCN(Cc2ccc(Br)cc2)C1	0.261
CN1C(=O)C2C=CC(C(O)c3cccn3C)N(Nc3ccc([N+](=O)[O-])cc3[N+](=O)[O-])C2C1=O (stereo not given)	-1.58
COC(=O)[C@@]1(Cc2ccc(F)cc2)[C@H]2c3cc(C(=O)N4CCCC4)n(CCc4c[nH]c5ccccc45)c3C[C@H]2CN1C(=O)c1ccccc1	0.28
CC(c1ccccc1)C(O)C1C=CC2C(=O)N(C)C(=O)C2N1Nc1ccccc1 (stereo not given)	-0.624
C=CCNC(=O)[C@@H]1[C@H]2C(=O)O[C@H](c3ccccc3)[C@H](c3ccccc3)N2[C@H](c2ccccc2OCCO)[C@@]12C(=O)N(C(=O)OCCOC)c1ccc(C#CC3(O)CCCCCC3)cc12	-0.746
OCCCC1=CC(c2ccc(CN3CCCC3)cc2)N(Cc2cc3c(cc2Br)OCO3)CC1 (stereo not given)	1.72
COCCOC(=O)N1C(=O)[C@@]2(c3cc(C#CC4=CCCCC4)ccc31)[C@H](c1ccccc1OCCO)N1[C@H](c3ccccc3)[C@H](c3ccccc3)OC(=O)[C@H]1[C@@H]2C(=O)N1CCN(c2ncccn2)CC1	0.259
CCCCCCCCCCC(O)C1C=CC2C(=O)N(c3ccccc3)C(=O)C2N1Nc1ccc(C#N)cc1 (stereo not given)	-3.28
CO[C@H]1O[C@H](CO)[C@@H](OC(=O)CCc2ccccc2)[C@@H]2OC(=O)[C@@H](Cc3ccccc3)C/C=C/C[C@H](Cc3ccccc3)C(=O)O[C@@H]12	0.358
C=CC[C@]1(C(=O)N2CCCCC2)N=C(c2ccc(OCCCO)cc2)O[C@H]1c1ccccc1CN=[N+]=[N-]	0.574
Cn1cccc1C(O)C1C=CC2C(=O)N(c3ccccc3)C(=O)C2N1Nc1ccccc1 (stereo not given)	-1.3

* * *

Test system: Chordin-like protein 2 (CHRDL2)
EXPERIMENT: compounds binding chordin-like 2 – biochemical, small-molecule microarray, 635 nm fluorescence, primary screen (AID 1126);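 note: printed compound slides probed with Chrdl2 protein at 4 µg/mL for 1 h at 4 C; score merges 667 nm emission intensity with signal to noise over three replicate slides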
APPLIED CONDITIONS: fluorescence 635 nm, higher = more signal

COMPOUND	composite z-score
COC(=O)c1c(CC[C@@H](CO)NC(=O)N2CCC[C@H]2Cn2cc(C3(O)CCCCC3)nn2)oc(C(C)=O)c1C(=O)OC	1.09
CC(=O)N1CC2(CC2)CC1c1ccccc1 (centres undefined)	0.0586
O=C(NCc1ccc(F)cc1)[C@H]1C[C@H]2C(=O)NCC(=O)N2[C@H]1c1ccc(O)cc1	0.491
C=CCN1C(=O)[C@]2(CCS(=O)(=O)c3ccccc3)N=C(c3ccc(OCCCO)cc3)O[C@@H]2c2ccccc21	1
COC(=O)[C@]1(CCS(=O)(=O)c2ccccc2)N=C(c2ccc(OCCCO)cc2)O[C@@H]1c1ccccc1N=[N+]=[N-]	0.412
COCCCNC(=O)[C@@]1(CCC(=O)OC(C)(C)C)N=C(c2ccc(OCCCO)cc2)O[C@H]1c1ccccc1N=[N+]=[N-]	0.279
COC(=O)[C@@]1(Cc2ccccc2)[C@H]2c3cc(C(=O)N(C)C)n(Cc4ccc(C)o4)c3C[C@H]2CN1C(=O)c1ccccc1	-1.06
C[C@@H]1NC(=O)[C@@H](Cc2ccccc2)NC(=O)[C@@]23C(=O)N[C@@H](Cc4ccccc4)C2[C@H](C)[C@@]2(C)O[C@H]2C3/C=C/C/C=C\CNC1=O (some centres undefined)	-0.153
COCCOC(=O)N1C(=O)[C@@]2(c3cc(C#CC4=CCCCC4)ccc31)[C@H](C(=O)Nc1nc3ccccc3s1)[C@H]1C(=O)O[C@H](c3ccccc3)[C@H](c3ccccc3)N1[C@@H]2c1ccc(O)cc1	0.408
O=C(NCCN1CCOCC1)[C@@H]1c2ccccc2C(=O)N(C2Cc3ccccc3C2)[C@H]1c1ccc(CO)cc1	-0.419
CCCC#C[Si](O[C@H](CC)c1cn([C@H](C)c2ccccc2)nn1)(C(C)C)C(C)C	0.169
COC(=O)[C@@]1(Cc2ccc(F)cc2)[C@H]2c3cc(C(=O)N4CCCC4)n(CCc4c[nH]c5ccccc45)c3C[C@H]2CN1C(=O)c1ccccc1	0.291
COc1ccc([Si](C)(C)[C@@H]2[C@@H](CCO)O[C@]3(C(=O)N(Cc4ccccc4)c4ccc(N5C(=O)c6cccc7cccc5c67)cc43)[C@H]2C)cc1	-0.215
COCCOC(=O)N1C(=O)[C@@]2(c3cc(C#CC4(O)CCCCCC4)ccc31)[C@H](C(=O)N1CCc3cc(OC)c(OC)cc3C1)[C@H]1C(=O)O[C@H](c3ccccc3)[C@H](c3ccccc3)N1[C@@H]2c1ccc(OCCO)cc1	0.666
